Task for the reader: assign each of the following compounds its reported remaining at 48 h.
- protocol: Chemical stability of the compound in at pH 7.4 measured at 48 hrs by HPLC based non-enzymatic stability assay
- Type: physicochemical
- settings: buffer, read-out: Stability
Answers are plain numbers, in %.

Use these answered entries as a reference point.
Nc1ncc(-c2ccc(S(=O)(=O)NCCCCC(=O)NCCCC#Cc3cccc4c3CN(C3CCC(=O)NC3=O)C4=O)cc2)nc1C(=O)Nc1ccccc1 (stereo unspecified); 103
CNCc1ccc(-c2nnc(-c3nc(-c4ccc(S(=O)(=O)NCCCCCCC(=O)NCCCC#Cc5cccc6c5CN(C5CCC(=O)NC5=O)C6=O)cc4)cnc3N)o2)cc1 (stereo unspecified); 95
Nc1ncc(-c2ccc(S(=O)(=O)NCCCCC(=O)NCCOc3ccc(C4CCC(=O)NC4=O)cc3)cc2)nc1C(=O)Nc1ccccc1 (stereo unspecified); 99
Nc1ncc(-c2ccc(S(=O)(=O)NCCCCCC(=O)N3CCN(c4ccc5c(c4)C(=O)N(C4CCC(=O)NC4=O)C5=O)CC3)cc2)nc1C(=O)Nc1ccccc1 (stereo unspecified); 87
CNCc1ccc(-c2nnc(-c3nc(-c4ccc(S(=O)(=O)NCCCCC(=O)N5CCN(c6ccc7c(c6)C(=O)N(C6CCC(=O)NC6=O)C7=O)CC5)cc4)cnc3N)o2)cc1 (stereo unspecified); 83

# next compound below
Input line: Request the reported remaining at 48 h associated with CNCc1ccc(-c2nnc(-c3nc(-c4ccc(S(=O)(=O)NCCCCCC(=O)NCCCC#Cc5cccc6c5CN(C5CCC(=O)NC5=O)C6=O)cc4)cnc3N)o2)cc1 (stereo unspecified)
Output line: 103

###

- protocol: Plasma protein binding in human plasma
- Type: ADME, cell-free
- settings: read-out: PPB (converted)
measurement_type: fraction unbound

Nc1ncc(-c2ccc(S(=O)(=O)NCCCCCC(=O)NCCCC#Cc3cccc4c3CN(C3CCC(=O)NC3=O)C4=O)cc2)nc1C(=O)Nc1ccccc1 (configuration not stated); 0.106

# next molecule below
Input line: Request the reported fraction unbound associated with `CNS(=O)(=O)c1ccc(-c2cnc(N)c(C(=O)Nc3ccccc3)n2)cc1`
Output line: 0.225

###

- protocol: Chemical stability of the compound in at pH 7.4 measured at 6 hrs by HPLC based non-enzymatic stability assay
- Format: physicochemical
- settings: buffer, read-out: Stability
measurement_type: remaining at 6 h (%)
Numbers only, in %.

Use these answered entries as a reference point.
Cc1ncsc1-c1ccc(CNC(=O)[C@@H]2C[C@@H](O)CN2C(=O)[C@@H](NC(=O)CCOCCOCCOCCNS(=O)(=O)c2ccc(-c3cnc(N)c(C(=O)Nc4ccccc4)n3)cc2)C(C)(C)C)cc1; 100
Nc1ncc(-c2ccc(S(=O)(=O)NCCCCCCC(=O)NCCOc3ccc(C4CCC(=O)NC4=O)cc3)cc2)nc1C(=O)Nc1ccccc1 (stereo unspecified); 101
Nc1ncc(-c2ccc(S(=O)(=O)NCCCCC(=O)N3CCN(c4ccc5c(c4)C(=O)N(C4CCC(=O)NC4=O)C5=O)CC3)cc2)nc1-c1nnc(-c2ccccc2)o1 (stereo unspecified); 99
Nc1ncc(-c2ccc(S(=O)(=O)NCCCCCCCC(=O)NCC#Cc3cccc4c3CN(C3CCC(=O)NC3=O)C4=O)cc2)nc1C(=O)Nc1ccccc1 (stereo unspecified); 100
Nc1ncc(-c2ccc(S(=O)(=O)NCCCCCC(=O)NCCCC#Cc3cccc4c3CN(C3CCC(=O)NC3=O)C4=O)cc2)nc1C(=O)Nc1ccccc1 (stereo unspecified); 102

# next compound below
Input line: Request the reported remaining at 6 h associated with `CNS(=O)(=O)c1ccc(-c2cnc(N)c(C(=O)Nc3ccccc3)n2)cc1`
Output line: 99

###

Task for the reader: assign each of the following compounds its reported remaining at 24 h.
- protocol: Chemical stability of the compound in at pH 7.4 measured at 24 hrs by HPLC based non-enzymatic stability assay
- Type: physicochemical
- settings: buffer, read-out: Stability
Answers are plain numbers, in %.

Nc1ncc(-c2ccc(S(=O)(=O)NCCCCCC(=O)NCCCC#Cc3cccc4c3CN(C3CCC(=O)NC3=O)C4=O)cc2)nc1C(=O)Nc1ccccc1 (stereo unspecified); 106
Nc1ncc(-c2ccc(S(=O)(=O)NCCCCCC(=O)N3CCN(c4ccc5c(c4)C(=O)N(C4CCC(=O)NC4=O)C5=O)CC3)cc2)nc1C(=O)Nc1ccccc1 (stereo unspecified); 96
CNCc1ccc(-c2nnc(-c3nc(-c4ccc(S(=O)(=O)NCCCCCC(=O)N[C@H](C(=O)N5C[C@H](O)C[C@H]5C(=O)NCc5ccc(-c6scnc6C)cc5)C(C)(C)C)cc4)cnc3N)o2)cc1; 101
Nc1ncc(-c2ccc(S(=O)(=O)NCCCCCC(=O)NCC#Cc3cccc4c3CN(C3CCC(=O)NC3=O)C4=O)cc2)nc1-c1nnc(-c2ccccc2)o1 (stereo unspecified); 105
Nc1ncc(-c2ccc(S(=O)(=O)NCCCCCC(=O)N3CCN(c4cccc(C(=O)NC5CCC(=O)NC5=O)n4)CC3)cc2)nc1C(=O)Nc1ccccc1 (stereo unspecified); 97

Input line: Request the reported remaining at 24 h associated with Nc1ncc(-c2ccc(S(=O)(=O)NCCCCCCC(=O)N3CCN(c4ccc5c(c4)C(=O)N(C4CCC(=O)NC4=O)C5=O)CC3)cc2)nc1C(=O)Nc1ccccc1 (stereo unspecified)
Output line: 88

###

- protocol: Chemical stability of the compound in at pH 7.4 measured at 72 hrs by HPLC based non-enzymatic stability assay
- Format: physicochemical
- settings: buffer, read-out: Stability
measurement_type: remaining at 72 h (%)
One number for each entry, in %.

Use these answered entries as a reference point.
Nc1ncc(-c2ccc(S(=O)(=O)NCCCCCCC(=O)N3CCN(c4ccc5c(c4)C(=O)N(C4CCC(=O)NC4=O)C5=O)CC3)cc2)nc1C(=O)Nc1ccccc1 (stereo unspecified); 70
Nc1ncc(-c2ccc(S(=O)(=O)NCCCCCCC(=O)NCCOc3ccc(C4CCC(=O)NC4=O)cc3)cc2)nc1C(=O)Nc1ccccc1 (stereo unspecified); 101
CNCc1ccc(-c2nnc(-c3nc(-c4ccc(S(=O)(=O)NCCCCCCC(=O)N5CCN(c6ccc7c(c6)C(=O)N(C6CCC(=O)NC6=O)C7=O)CC5)cc4)cnc3N)o2)cc1 (stereo unspecified); 72
Nc1ncc(-c2ccc(S(=O)(=O)NCCCCCCCC(=O)N3CCN(c4ccc5c(c4)C(=O)N(C4CCC(=O)NC4=O)C5=O)CC3)cc2)nc1C(=O)Nc1ccccc1 (stereo unspecified); 84
Nc1ncc(-c2ccc(S(=O)(=O)NCCCCCC(=O)NCC#Cc3cccc4c3CN(C3CCC(=O)NC3=O)C4=O)cc2)nc1-c1nnc(-c2ccccc2)o1 (stereo unspecified); 106

# next molecule below
Input line: Request the reported remaining at 72 h associated with `CNCc1ccc(-c2nnc(-c3nc(-c4ccc(S(=O)(=O)NCCCCCC(=O)N[C@H](C(=O)N5C[C@H](O)C[C@H]5C(=O)NCc5ccc(-c6scnc6C)cc5)C(C)(C)C)cc4)cnc3N)o2)cc1`
Output line: 99

###

- protocol: Chemical stability of the compound in at pH 7.4 measured at 24 hrs by HPLC based non-enzymatic stability assay
- Type: physicochemical
- settings: buffer, read-out: Stability
measurement_type: remaining at 24 h (%)
One number for each entry, in %.

Nc1ncc(-c2ccc(S(=O)(=O)NCCCCCC(=O)NCC#Cc3cccc4c3CN(C3CCC(=O)NC3=O)C4=O)cc2)nc1C(=O)Nc1ccccc1 (configuration not stated); 104

I'm hoping you can list remaining at 24 h for every compound here, please.
1. Nc1ncc(-c2ccc(S(=O)(=O)NCCCCCCCC(=O)NCC#Cc3cccc4c3CN(C3CCC(=O)NC3=O)C4=O)cc2)nc1C(=O)Nc1ccccc1 (configuration not stated)
2. Nc1ncc(-c2ccc(S(=O)(=O)NCCCCCCCC(=O)N3CCN(c4ccc5c(c4)C(=O)N(C4CCC(=O)NC4=O)C5=O)CC3)cc2)nc1C(=O)Nc1ccccc1 (configuration not stated)
3. Nc1ncc(-c2ccc(S(=O)(=O)NCCCCCCCC(=O)NCCOc3ccc(C4CCC(=O)NC4=O)cc3)cc2)nc1C(=O)Nc1ccccc1 (configuration not stated)
4. Nc1ncc(-c2ccc(S(=O)(=O)NCCCCCC(=O)N3CCN(c4ccc5c(c4)C(=O)N(C4CCC(=O)NC4=O)C5=O)CC3)cc2)nc1-c1nnc(-c2ccccc2)o1 (configuration not stated)
5. Cc1ncsc1-c1ccc(CNC(=O)[C@@H]2C[C@@H](O)CN2C(=O)[C@@H](NC(=O)CCCCNS(=O)(=O)c2ccc(-c3cnc(N)c(-c4nnc(-c5ccccc5)o4)n3)cc2)C(C)(C)C)cc1
6. Nc1ncc(-c2ccc(S(=O)(=O)NCCCCC(=O)NCCOc3ccc(C4CCC(=O)NC4=O)cc3)cc2)nc1C(=O)Nc1ccccc1 (configuration not stated)
7. Cc1ncsc1-c1ccc(CNC(=O)[C@@H]2C[C@@H](O)CN2C(=O)[C@@H](NC(=O)CCOCCOCCNS(=O)(=O)c2ccc(-c3cnc(N)c(C(=O)Nc4ccccc4)n3)cc2)C(C)(C)C)cc1
8. Nc1ncc(-c2ccc(S(=O)(=O)NCCCCC(=O)NCC#Cc3cccc4c3CN(C3CCC(=O)NC3=O)C4=O)cc2)nc1-c1nnc(-c2ccccc2)o1 (configuration not stated)

Output line:
1: 98; 2: 108; 3: 100; 4: 90; 5: 102; 6: 101; 7: 101; 8: 105

Recorded values, source ChEMBL document CHEMBL5543092.
